Molecular target: T1, Recombinant Human GFRα-1/GDNF Rα-1 Fc Chimera (human, UniProt P56159 25-429)
T1 construct: Purchased Fc chimera; It was captured on protein A in Biacore and coated on the plate in ELISA; also called GFRα1-Fc; recombinant human GFRα1-Fc chimera, carrier-free; not shown: Fc part of a purchased Fc chimera
T1 sequence (looked up): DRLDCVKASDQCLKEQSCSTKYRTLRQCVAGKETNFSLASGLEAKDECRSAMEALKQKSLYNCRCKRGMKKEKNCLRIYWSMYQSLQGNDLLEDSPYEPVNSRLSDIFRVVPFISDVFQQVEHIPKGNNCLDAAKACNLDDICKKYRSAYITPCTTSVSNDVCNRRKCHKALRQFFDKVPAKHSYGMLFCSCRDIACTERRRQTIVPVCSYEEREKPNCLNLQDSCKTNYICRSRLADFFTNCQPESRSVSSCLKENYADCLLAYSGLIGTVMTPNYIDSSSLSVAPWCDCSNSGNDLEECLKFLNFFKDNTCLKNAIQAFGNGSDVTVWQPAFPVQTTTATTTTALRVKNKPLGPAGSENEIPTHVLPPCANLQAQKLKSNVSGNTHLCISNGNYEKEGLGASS
Assay: SPR (Biacore 2000), GFRα1-Fc captured on protein A, GDNFv as analyte, 1:1 Langmuir, 25 C
Quick list: koff per entry.
Respond with the bare value in s⁻¹.

Binder	koff (s⁻¹)
CHO-Δ31-N38Q-D95E-GDNF (SEQ ID NO: 9) (ligand, N-glycosylated at N49 (numbering of mature GDNF), Expressed in CHO cells; also called CHO-Δ31-N38Q-D95E-GDNFv; GDNF variant 2) RGQRGKQRGCVLTAIHLNVTDLGLGYETKEELIFRYCSGSCDAAETTYDKILKNLSRNRRLVSEKVGQACCRPIAFDDDLSFLDDNLVYHILRKHSAKRCGCI	0.00011

# input for lookup
The recorded koff for CHO-Δ31-N38Q-K84A-R88K-R90K-D95E-GDNF (SEQ ID NO: 12) (ligand, N-glycosylated at N49 (numbering of mature GDNF), Expressed in CHO cells; also called Δ31-N38Q-KAKKE; GDNF variant 3) RGQRGKQRGCVLTAIHLNVTDLGLGYETKEELIFRYCSGSCDAAETTYDKILANLSKNKRLVSEKVGQACCRPIAFDDDLSFLDDNLVYHILRKHSAKRCGCI is 0.00014
